B1: tRNA (parent)
chain: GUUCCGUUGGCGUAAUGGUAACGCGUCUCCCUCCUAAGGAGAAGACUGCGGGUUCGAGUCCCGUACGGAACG

variants of: B1; test: yeast fitness relative to wild type (ratio to wild type); higher = fitter; tRNA-Arg(CCU), competitive growth, 37 C, YPD
Variants at the floor of the assay were thinned out.
variants and their reported yeast fitness
Write the value as a bare number.

Worked cases, answers included:
> print(dat)
              var    metric.name  assay.result
1       A36U A65G  yeast fitness         0.673
2  C24U C55U G68C  yeast fitness         0.552

Challenge: Suppose we examine the variant C11G G48C ; what yeast fitness value has been reported?
Response given: 0.687

Challenge: Suppose we examine the variant G23A U35C ; what yeast fitness value has been reported?
Response given: 0.572

Challenge: Suppose we examine the variant A45C U64G ; what yeast fitness value has been reported?
Response given: 0.654

Challenge: Suppose we examine the variant A14C C30U A37C C62A ; what yeast fitness value has been reported?
Response given: 0.693

Challenge: Suppose we examine the variant A14G G48A C66U ; what yeast fitness value has been reported?
Response given: 0.645

Challenge: Suppose we examine the variant G9A C34A A45C ; what yeast fitness value has been reported?
Response given: 0.541

Challenge: Suppose we examine the variant C5G G51C ; what yeast fitness value has been reported?
Response given: 0.761
